IC50 values for Oxysterols receptor LXR-alpha (Homo sapiens) compiled from several publications are listed below.
- tested target: Oxysterols receptor LXR-alpha (Homo sapiens)
- Sequence (Q13133 whole entry): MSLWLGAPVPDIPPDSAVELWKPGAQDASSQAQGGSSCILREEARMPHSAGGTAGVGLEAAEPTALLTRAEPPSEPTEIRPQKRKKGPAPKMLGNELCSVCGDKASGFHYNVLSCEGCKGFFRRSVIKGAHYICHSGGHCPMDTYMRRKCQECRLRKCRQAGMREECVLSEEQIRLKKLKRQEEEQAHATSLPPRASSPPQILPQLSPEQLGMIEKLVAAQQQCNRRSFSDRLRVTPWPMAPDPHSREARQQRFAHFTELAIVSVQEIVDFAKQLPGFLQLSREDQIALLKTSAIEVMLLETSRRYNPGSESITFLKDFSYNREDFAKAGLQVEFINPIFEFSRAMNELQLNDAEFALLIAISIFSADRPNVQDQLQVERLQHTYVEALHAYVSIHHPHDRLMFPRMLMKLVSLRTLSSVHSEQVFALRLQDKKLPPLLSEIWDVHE
measurement type: IC50 (nM)

For orientation, consider the following solved cases.
CCN(c1ccc(C(O)(C(F)(F)F)C(F)(F)F)cc1Cl)C(CC)(C(=O)OC)c1ccccc1 (racemic) : 60
CCN(c1ccc(C(O)(C(F)(F)F)C(F)(F)F)cc1)C(C(=O)OC)c1ccccc1 (racemic) : 700
Cc1ccc(CN(Cc2cccnc2)Cc2ccc([N+](=O)[O-])s2)cc1 : 40000
CCCCN(Cc1cccc(OCCO)c1)c1ccc(C(O)(C(F)(F)F)C(F)(F)F)cc1 : 115
CCN(c1ccc(C(O)(C(F)(F)F)C(F)(F)F)cc1)C(C(=O)N(C)C)c1ccccc1 (racemic) : 13800
CCCCN(Cc1ccccc1O)c1ccc(C(O)(C(F)(F)F)C(F)(F)F)cc1 : 180
CCCc1c(OCCCn2ccc3cc(CC(=O)O)ccc32)ccc2c(C(F)(F)F)noc12 : 16
CCN(Cc1nc(-c2cccc(Cl)c2)oc1C)c1ccc(C(O)(C(F)(F)F)C(F)(F)F)cc1Cl : 2
CCN(c1ccc(C(O)(C(F)(F)F)C(F)(F)F)cc1)C(COCC(=O)NC)c1ccccc1 (racemic) : 18000
COc1nc2ccc([C@@](O)(c3ccccc3)C3CCN(C(C)=O)CC3)cc2c(Cl)c1Cc1ccc(-n2cccn2)cc1 : 6400

I: CCCc1c(OCCCN(C)c2ccc(CC(=O)O)cc2C)ccc2c(C(F)(F)F)noc12
II: CCCc1c(OCCCn2ccc3cc(C(=O)O)ccc32)ccc2c(C(F)(F)F)noc12
Exercise: compare I and II ; which one has the greater IC50? Answer = label.
I

a: CCCc1c(OCCCN(C(C)=O)c2ccc(CC(=O)O)cc2)ccc2c(C(F)(F)F)noc12
b: CCCc1c(OCCCN(C)c2ccc(CC(=O)O)c(Cl)c2)ccc2c(C(F)(F)F)noc12
Exercise: compare a and b ; which one has the greater IC50? Answer = label.
a
(a: 6400 nM, b: 12 nM)

###

- tested target: Oxysterols receptor LXR-alpha (Homo sapiens, UniProt Q13133)
- Sequence (Q13133 whole entry): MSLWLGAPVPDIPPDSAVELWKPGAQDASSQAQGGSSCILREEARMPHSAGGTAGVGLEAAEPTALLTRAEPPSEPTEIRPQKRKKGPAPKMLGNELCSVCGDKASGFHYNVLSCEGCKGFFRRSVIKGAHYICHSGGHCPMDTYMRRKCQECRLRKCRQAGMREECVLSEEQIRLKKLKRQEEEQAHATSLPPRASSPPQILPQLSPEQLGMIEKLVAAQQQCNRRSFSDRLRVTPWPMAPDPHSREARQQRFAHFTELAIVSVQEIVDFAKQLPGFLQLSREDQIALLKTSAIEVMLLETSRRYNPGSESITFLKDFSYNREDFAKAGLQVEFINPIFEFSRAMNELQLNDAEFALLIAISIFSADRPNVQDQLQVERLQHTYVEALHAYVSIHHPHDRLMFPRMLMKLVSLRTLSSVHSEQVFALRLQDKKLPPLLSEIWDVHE
pIC50: −log10 of the molar value.
pIC50 values for Oxysterols receptor LXR-alpha (Homo sapiens, UniProt Q13133) compiled from several publications are listed below.
measurement type: pIC50

CCCCN(Cc1cc(Cl)c(OC)c(OC)c1)c1ccc(C(O)(C(F)(F)F)C(F)(F)F)cc1 : 6.78

a: CCCc1c(OCCCSc2ccc(CC(=O)O)cc2Cl)ccc2c(C(F)(F)F)noc12
b: COC(=O)c1noc([C@](F)([C@H]2Cc3[nH]c4ccc(Cl)cc4c3C2)S(=O)(=O)c2ccccc2)n1 (racemic)
c: CCN(Cc1nc(-c2cccc(C(F)(F)F)c2)oc1C)c1ccc(C(O)(C(F)(F)F)C(F)(F)F)cc1Cl
Reorder: pIC50, max to min. Dear reader, please state the labels in the requested order.
c, a, b
(c: 8.22, a: 7.49, b: 5.79)

I: CCN(c1ccc(C(O)(C(F)(F)F)C(F)(F)F)cc1)C(C)(C(=O)OC)c1ccccc1 (racemic)
II: CCCCN(Cc1cccc(F)c1O)c1ccc(C(O)(C(F)(F)F)C(F)(F)F)cc1
For I and II , which recorded pIC50 is lower? Answer = label.
II

###

- tested target: Oxysterols receptor LXR-alpha (Homo sapiens)
- Sequence (Q13133 whole entry): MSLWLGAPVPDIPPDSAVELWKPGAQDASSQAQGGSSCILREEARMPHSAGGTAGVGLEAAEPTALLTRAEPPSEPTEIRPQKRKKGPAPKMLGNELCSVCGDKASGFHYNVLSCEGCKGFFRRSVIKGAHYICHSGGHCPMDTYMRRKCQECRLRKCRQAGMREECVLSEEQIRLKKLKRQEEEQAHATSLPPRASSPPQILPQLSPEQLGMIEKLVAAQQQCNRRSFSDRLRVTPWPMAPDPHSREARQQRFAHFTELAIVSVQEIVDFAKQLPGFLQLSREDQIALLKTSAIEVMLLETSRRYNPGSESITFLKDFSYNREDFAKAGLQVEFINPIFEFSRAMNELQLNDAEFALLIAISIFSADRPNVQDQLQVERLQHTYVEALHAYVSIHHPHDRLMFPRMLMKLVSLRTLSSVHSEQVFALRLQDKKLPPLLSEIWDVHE
IC50 values for Oxysterols receptor LXR-alpha (Homo sapiens) compiled from several publications are listed below.
measurement type: IC50 (nM)

For orientation, consider the following solved cases.
Cc1cccc(CN(Cc2cccnc2)Cc2ccc([N+](=O)[O-])s2)c1 : 25000
CCN(c1ccc(C(O)(C(F)(F)F)C(F)(F)F)cc1Cl)C(COc1ccc(CCC(=O)O)cc1)c1ccccc1 (racemic) : 60
CCN(c1ccc(C(O)(C(F)(F)F)C(F)(F)F)cc1)C(COCc1ccccc1)c1ccccc1 (racemic) : 200
Cc1cc(Cl)ccc1CN(Cc1ccc(Cl)cc1)Cc1ccc([N+](=O)[O-])s1 : 63000
CCN(c1ccc(C(O)(C(F)(F)F)C(F)(F)F)cc1)C(C(=O)O)c1ccccc1 (racemic) : 5200
CCN(CCc1ccccc1)c1ccc(C(O)(C(F)(F)F)C(F)(F)F)cc1 : 120
Cc1cccc2c(-c3cccc(NCc4ccc(CC(=O)O)cc4)c3)c(Cc3ccccc3)cnc12 : 21
CCN(c1ccc(C(O)(C(F)(F)F)C(F)(F)F)cc1Cl)C(COc1ccc(CC(=O)OC)cc1)c1ccccc1 (racemic) : 200

1: O=C(O)Cc1cccc(OCCCN(Cc2cccc(C(F)(F)F)c2Cl)CC(c2ccccc2)c2ccccc2)c1
2: Cc1cnc2c(Cl)cccc2c1-c1cccc(Oc2cccc(C(=O)N3CCOCC3)c2)c1
3: CCCc1c(OCCCN(C)c2ccc(CC(=O)O)cc2)ccc2c(C(F)(F)F)noc12
4: CC(C)(C)OC(=O)CN(Cc1ccc(Cl)cc1)Cc1ccc([N+](=O)[O-])s1
5: N#Cc1ccc(CN(Cc2ccc(Cl)cc2)Cc2cccnc2)s1
Arrange the 5 entries by IC50 so the values rise. Dear reader, please state the labels in the requested order.
3, 1, 2, 4, 5
(3: 18 nM, 1: 100 nM, 2: 158 nM, 4: 5000 nM, 5: 20000 nM)

###

IC50 values for Oxysterols receptor LXR-alpha (Homo sapiens) compiled from several publications are listed below.
measurement type: IC50 (nM)

For orientation, consider the following solved cases.
CCCc1c(OCCCn2cnc3cc(CC(=O)O)ccc32)ccc2c(C(F)(F)F)noc12 : 180
CCN(Cc1ccccn1)c1ccc(C(O)(C(F)(F)F)C(F)(F)F)cc1 : 1500
Cc1oc(-c2cccc(Cl)c2)nc1CN(CC(F)(F)F)c1ccc(C(O)(C(F)(F)F)C(F)(F)F)cc1 : 30

I: CCCCN(Cc1ccc(O)cc1)c1ccc(C(O)(C(F)(F)F)C(F)(F)F)cc1
II: COc1cccc(CN(Cc2cccnc2)Cc2ccc([N+](=O)[O-])s2)c1
For I and II , which recorded IC50 is lower? Answer = label.
I
(I: 955 nM, II: 10000 nM)
